- study.target: Platelet-derived growth factor receptor alpha (Homo sapiens) (UniProt P16234)
- Sequence (P16234 whole entry): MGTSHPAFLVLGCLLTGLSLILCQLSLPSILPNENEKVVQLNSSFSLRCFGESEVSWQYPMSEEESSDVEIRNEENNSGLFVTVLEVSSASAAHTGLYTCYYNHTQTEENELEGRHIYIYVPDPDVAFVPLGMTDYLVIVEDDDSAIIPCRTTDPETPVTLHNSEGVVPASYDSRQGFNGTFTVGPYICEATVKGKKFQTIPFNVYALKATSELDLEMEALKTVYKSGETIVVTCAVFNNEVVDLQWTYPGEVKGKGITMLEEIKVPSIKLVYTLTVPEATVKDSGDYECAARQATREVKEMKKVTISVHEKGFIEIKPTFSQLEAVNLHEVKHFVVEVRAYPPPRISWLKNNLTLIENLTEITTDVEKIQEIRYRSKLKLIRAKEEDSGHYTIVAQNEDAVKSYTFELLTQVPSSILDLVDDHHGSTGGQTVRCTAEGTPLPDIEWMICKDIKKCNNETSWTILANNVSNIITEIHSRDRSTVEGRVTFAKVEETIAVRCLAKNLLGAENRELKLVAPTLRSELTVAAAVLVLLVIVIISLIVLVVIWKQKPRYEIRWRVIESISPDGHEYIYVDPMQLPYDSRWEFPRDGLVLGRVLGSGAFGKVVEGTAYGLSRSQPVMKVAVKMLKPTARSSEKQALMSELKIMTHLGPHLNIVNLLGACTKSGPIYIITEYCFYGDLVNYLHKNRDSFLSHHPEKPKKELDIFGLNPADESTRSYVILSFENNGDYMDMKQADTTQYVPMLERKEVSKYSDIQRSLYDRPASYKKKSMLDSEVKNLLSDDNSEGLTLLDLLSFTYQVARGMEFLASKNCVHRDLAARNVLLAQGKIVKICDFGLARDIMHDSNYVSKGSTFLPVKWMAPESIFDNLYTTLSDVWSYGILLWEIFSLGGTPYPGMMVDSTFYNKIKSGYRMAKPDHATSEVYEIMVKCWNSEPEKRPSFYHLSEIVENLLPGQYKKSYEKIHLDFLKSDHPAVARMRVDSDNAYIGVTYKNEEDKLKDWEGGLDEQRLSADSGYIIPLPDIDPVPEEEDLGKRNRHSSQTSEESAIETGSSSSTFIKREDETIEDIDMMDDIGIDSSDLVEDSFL
- assay.setup: at 1 µM
Give measured residual activity for each item. Keep answers brief.
One number for each entry, in %.

For orientation, consider the following solved cases.
query.smiles	units.symbol	residual activity
CCN(CC)CCCCN1c2ccccc2Oc2ccc(Cl)cc21	%	126
O=Nc1c(-c2c(O)[nH]c3ccccc23)[nH]c2ccccc12	%	87
O=C1NC(=O)c2c1c1c3ccccc3[nH]c1c1[nH]c3cc(Br)ccc3c21	%	101
CO[C@@H]1[C@H](N(C)C(=O)c2ccccc2)C[C@H]2O[C@]1(C)n1c3ccccc3c3c4c(c5c6ccccc6n2c5c31)C(=O)NC4	%	54
N#Cc1cnc2cnc(NCc3cccnc3)cc2c1Nc1ccc(F)c(Cl)c1	%	97
CN(C)CCCn1cc(C2=C(c3c[nH]c4ccccc34)C(=O)NC2=O)c2ccccc21	%	121

Turning to the following molecule.
For Oc1c2ccccc2c2c3c(cccc13)N=N2 , what is its reported residual activity? 108
